# Test system: IL17A
# assay_notes: skin Resident Immune Cell Assay (sRICA), Th17 model, IL17A protein in media
# Format: cell-based
# conditions_used: 100 uM solution in 1% DMSO/OD applied topically to human skin; media collected 24 hours after Th17 activation
# key: entry, value: inhibition at 100 µM

[
  {
    "compound": "COCc1ccc2c(c1)CCN(C(=O)Cc1cc(O)no1)[C@H]2C(=O)Nc1cc(F)c2c(c1)CCC2(C)C",
    "inhibition at 100 µM [%]": 50.5
  },
  {
    "compound": "CC(C)(C)c1ccc(NC(=O)[C@H](NC(=O)[C@@H]2CNC(=O)C2)c2ccc3c(c2)CCO3)cc1F",
    "inhibition at 100 µM [%]": 48.7
  },
  {
    "compound": "CC(C)n1c(=O)n(CC2CC(F)(F)C2)c(=O)c2cc(NC(=O)N3CCC[C@@H](N4Cc5ccccc5C4=O)C3)c(F)cc21",
    "inhibition at 100 µM [%]": 73.1
  },
  {
    "compound": "COCc1ccc2c(c1)CCN(C(=O)Cc1cc(O)no1)[C@H]2C(=O)Nc1ccc(C(C)(C)C)c(F)c1",
    "inhibition at 100 µM [%]": 60.8
  },
  {
    "compound": "COc1ccc2c(c1)CCN(C(=O)Cc1cc(O)no1)[C@H]2C(=O)Nc1ccc(C(C)(C)C)c(F)c1",
    "inhibition at 100 µM [%]": 23.6
  },
  {
    "compound": "CC(C)n1c(=O)n(CC2CC2)c(=O)c2cc(NC(=O)N3CCC[C@@H](NC(=O)c4ccccc4)C3)ccc21",
    "inhibition at 100 µM [%]": 53.2
  },
  {
    "compound": "COCc1ccc([C@@H](NC(=O)Cc2cc(O)no2)C(=O)Nc2ccc(C(C)(C)C)c(F)c2)cc1",
    "inhibition at 100 µM [%]": 68.1
  },
  {
    "compound": "COCC(C)(C)c1c(F)cc(NC(=O)[C@H]2c3ccc(OC)cc3CCN2C(=O)Cc2cc(O)no2)cc1F",
    "inhibition at 100 µM [%]": 46.3
  },
  {
    "compound": "COCc1ccc([C@@H](NC(=O)[C@H]2CNC(=O)C2)C(=O)Nc2ccc(C(C)(C)C)c(F)c2)cc1",
    "inhibition at 100 µM [%]": 74.1
  },
  {
    "compound": "COc1ccc2c(c1)CCN(C(=O)c1cc(O)no1)[C@H]2C(=O)Nc1cc(F)c2c(c1)CCC2(C)C (stereo in doubt)",
    "inhibition at 100 µM [%]": 42.3
  },
  {
    "compound": "COCC(C)(C)c1c(F)cc(NC(=O)[C@H]2c3ccc(OC)cc3CCN2C(=O)c2cc(O)no2)cc1F",
    "inhibition at 100 µM [%]": 56.2
  },
  {
    "compound": "CCOCC(C)(C)c1c(F)cc(NC(=O)[C@H]2c3ccc(OC)cc3CCN2C(=O)Cc2cc(O)no2)cc1F",
    "inhibition at 100 µM [%]": 54.9
  },
  {
    "compound": "COCc1ccc([C@@H](NC(=O)Cc2cc(O)no2)C(=O)Nc2cc(F)c(C(C)(C)C)c(F)c2)cc1",
    "inhibition at 100 µM [%]": 26.3
  },
  {
    "compound": "COc1ccc2c(c1)CCN(C(=O)Cc1cc(O)no1)[C@H]2C(=O)Nc1cc(F)c(C(C)(C)C)c(F)c1",
    "inhibition at 100 µM [%]": -10.9
  },
  {
    "compound": "CCOCC(C)(C)c1c(F)cc(NC(=O)[C@H]2c3ccc(OC)cc3CCN2C(=O)c2cc(O)no2)cc1F",
    "inhibition at 100 µM [%]": 56.1
  },
  {
    "compound": "COCc1ccc([C@@H](NC(=O)[C@@H]2CNC(=O)C2)C(=O)Nc2ccc(CC(C)(C)C)c(F)c2)cc1",
    "inhibition at 100 µM [%]": 52.9
  }
]
